Test: Pharmacokinetics after intravenous or oral administration of 10 mg/kg EZE to control and CCl4-induced rats
Type: in vivo
Settings: Sprague-Dawley, rat, plasma, po, 10 mg/kg, p.o. 10 mg/kg EZE, control rats
recorded metric: Tmax (h)

* O=C(O)[C@H]1O[C@@H](O[C@@H](CC[C@H]2C(=O)N(c3ccc(F)cc3)[C@@H]2c2ccc(O)cc2)c2ccc(F)cc2)[C@H](O)[C@@H](O)[C@@H]1O [EZE-Hy, ezetimibe hydroxy β-D-glucuronide] | 12
* O=C(O)[C@H]1O[C@@H](Oc2ccc([C@@H]3[C@@H](CC[C@H](O)c4ccc(F)cc4)C(=O)N3c3ccc(F)cc3)cc2)[C@H](O)[C@@H](O)[C@@H]1O [EZE-Ph, ezetimibe phenoxy β-D-glucuronide] | 8.8
* O=C1[C@H](CC[C@H](O)c2ccc(F)cc2)[C@@H](c2ccc(O)cc2)N1c1ccc(F)cc1 [EZE, reference compound] | 4.95

These data points were gathered from paper PMC9785202.
